These data points were gathered from ChEMBL document CHEMBL1821574.

# Test system: Plasmodium falciparum
# testSummary: Antimalarial activity against chloroquine-resistant and mefloquine-sensitive Plasmodium falciparum W2 assessed as inhibition of [3H]hypoxanthine incorporation by liquid scintillation spectrometry
# Assay type: functional
metric: IC90 (µg/mL)

INSERT INTO results (molecule, targetortestsystem, recordedresult) VALUES
  ('CN1CCCC(C(NCC(O)c2cc(C(F)(F)F)nc3c(C(F)(F)F)cccc23)C2CCCN(C)C2)C1 (centres undefined)', 'Plasmodium falciparum', 0.28),
  ('CN(C)CC(C)(C)NCC(O)c1cc(C(F)(F)F)nc2c(C(F)(F)F)cccc12 (centres undefined)', 'Plasmodium falciparum', 0.03),
  ('CCCCNCCNCC(O)c1cc(C(F)(F)F)nc2c(C(F)(F)F)cccc12 (centres undefined)', 'Plasmodium falciparum', 0.069),
  ('OC(CNC[C@]12CC[C@H](C1)NC2)c1cc(C(F)(F)F)nc2c(C(F)(F)F)cccc12 (some centres undefined)', 'Plasmodium falciparum', 0.57),
  ('CNCCNCC(O)c1cc(C(F)(F)F)nc2c(C(F)(F)F)cccc12 (centres undefined)', 'Plasmodium falciparum', 0.481),
  ('OC(CNC[C@@]12CCC[C@@H]1CNC2)c1cc(C(F)(F)F)nc2c(C(F)(F)F)cccc12 (some centres undefined)', 'Plasmodium falciparum', 0.885),
  ('OC(CNCCNCc1ccccc1)c1cc(C(F)(F)F)nc2c(C(F)(F)F)cccc12 (centres undefined)', 'Plasmodium falciparum', 0.006),
  ('OC(NC[C@]12CC[C@@H](C1)NC2)c1cc(C(F)(F)F)nc2c(C(F)(F)F)cccc12 (some centres undefined)', 'Plasmodium falciparum', 0.275),
  ('O=C1NCCC1N(CCNCC(O)c1cc(C(F)(F)F)nc2c(C(F)(F)F)cccc12)C1CCNC1=O (centres undefined)', 'Plasmodium falciparum', 0.487);
